Each item that follows carries a reported self-cleavage.
B1: HDV Ribozyme (parent)
chain: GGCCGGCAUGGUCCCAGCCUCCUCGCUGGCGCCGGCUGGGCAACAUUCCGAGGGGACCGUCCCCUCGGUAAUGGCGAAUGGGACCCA

variants of: B1; experiment: self-cleavage, relative activity (ratio to wild type); higher = more cleavage; co-transcriptional
Kindly provide the number alone.

# annotated cases, reported self-cleavage shown
| residue-string | experimental-endpoint | value-measured |
| --- | --- | --- |
| GGCCGGCAUGGUCCCAGCCUCAUCGCUGGCGCCGGCUGGGCAACAUUCCGAGGGGACCGUCCGCUCGGUAAUGGCGAAUGGGACCCA | self-cleavage | 0.369 |
| GGCCGGCAUGGUCCCAGCCUCCUCGCUGGCGCCGGCUAGGCAACAUUCCGAGGGGACCGUCCCCUCGUUAAUGGCGAAUGGGACCCA | self-cleavage | 0.18 |
| GGCCGGCAUGGGCCCAGCCUCCUCGCUGGCGCCGGCUGGGCAACGUUCCGAGGGGACCGUCCCCUCGGUAAUGGCGAAUGGGACCCA | self-cleavage | 0.959 |

The reported self-cleavage of the variant `GUCCGGCAUGGUCCCAGCCUCCUCGCUGGCGCCGGCUGGGCAACAUUCCGAGUGGACCGUCCCCUCGGUAAUGGCGAAUGGGACCCA` was 0.0256

The reported self-cleavage of the variant `GGCCGGCAUGGUCCCAGCCUCCUCGCUGGCGUCGGCUGGGCAACAUUCCGAGGGGUCCGUCCCCUCGGUAAUGGCGAAUGGGACCCA` was 0.76

The reported self-cleavage of the variant `GGCCGGCAUGGUCCCAGCCUCCUCGCUGGCGCCGGCUGGGCAACAUUCCGAGGGGAUCGUCCCCUCCGUAAUGGCGAAUGGGACCCA` was 1.11

The reported self-cleavage of the variant `GGCCGGCAUGGUCCCAGCGCCCUCGCUGGCGCCGGCUGGGCAACAUUCCGAGGGGACCGUCCCCUCGGUAAUGGCGAAUGGGACCCA` was 0.0692

The reported self-cleavage of the variant `GGCCGGCAUGGUCCCAGCCUCCUCGCUGGCGCCGGCUGGGCAACAUUCCGAGGGGACCGUCCCCUGGGUACUGGCGAAUGGGACCCA` was 1.03

The reported self-cleavage of the variant `GGCCGGCAUGGUCCCAGCCUCCUCGCUGGCGCCGGCUGGGCAACAUUCCGAGGGGACCGUACCCUCGGUAAUGGCUAAUGGGACCCA` was 1.05

The reported self-cleavage of the variant `GGCCGGCAUGGGCCCAGCCUCCUCGCUGGCGCCGGCUGGGCAACAUUCCGAGGGGACCUUCCCCUCGGUAAUGGCGAAUGGGACCCA` was 0.973

The reported self-cleavage of the variant `GGCCGGCAUGAUCCCAGCCUCCUCGCUGGCGCCGGCUGGGCAACAUUCCGAGGGGACCGUCCCCUCGGUAAUGGGGAAUGGGACCCA` was 0.141

The reported self-cleavage of the variant `GGCCGGCAUGGUCCCAGACUCCUCGCUGGCGCCGGCUGGGCGACAUUCCGAGGGGACCGUCCCCUCGGUAAUGGCGAAUGGGACCCA` was 0.102

The reported self-cleavage of the variant `GGCCGGCAUGGUCCCAGCCUCCUCGCUGGCGCCGGCUGUGCAACAUUCCGAGGGGACCGUCCCCACGGUAAUGGCGAAUGGGACCCA` was 0.627
